Numbers sourced from patent US20170260284A1.

- TESTED_ON: T1, human transmembrane protein 180 (TMEM-180), endogenous on human cancer cells (human, UniProt Q14CX5 1-517)
- T1 construct: Membrane protein expressed endogenously by human colon cancer lines (DLD-1 and others), brain tumor lines and colon cancer tissue; also called TMEM-180 on DLD-1 cells
- T1 sequence: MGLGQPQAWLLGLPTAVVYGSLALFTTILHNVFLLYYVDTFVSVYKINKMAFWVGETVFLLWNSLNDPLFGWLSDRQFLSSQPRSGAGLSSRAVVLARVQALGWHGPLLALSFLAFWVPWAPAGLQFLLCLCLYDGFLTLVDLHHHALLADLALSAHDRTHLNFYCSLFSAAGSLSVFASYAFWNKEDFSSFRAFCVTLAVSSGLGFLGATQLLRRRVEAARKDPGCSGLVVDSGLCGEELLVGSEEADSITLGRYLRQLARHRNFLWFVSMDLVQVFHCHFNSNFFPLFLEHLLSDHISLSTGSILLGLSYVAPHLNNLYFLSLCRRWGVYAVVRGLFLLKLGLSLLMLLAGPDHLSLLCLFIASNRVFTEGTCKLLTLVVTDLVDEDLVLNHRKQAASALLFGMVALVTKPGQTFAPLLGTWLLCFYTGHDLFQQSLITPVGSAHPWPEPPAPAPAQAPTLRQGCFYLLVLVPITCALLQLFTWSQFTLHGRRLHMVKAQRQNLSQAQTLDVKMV
- EXPERIMENT_NOTES: flow cytometry, hybridoma supernatant on DLD-1 cells (selection of clones)
OBSERVED_PROPERTY: binding result

stdin: Query binding result for anti-TMEM-180 antibody clone 1105 (rat IgM) (antibody, V domains shown, the entries appear to include a leader) VH: QVQLKESGPGLMQPSETLSLTCTVSGFSLTSNGVGWVRQPLGKGLVWMGTIWSGGGTNYNSAVQSRLSITRDTSKSQVFLKMNSLQPEDTGTYYCAREEKGFAYWGQGTLVTVSS VL: NIVMTQSPTSMSTSVGDRVTMSCKASQNVGINVGWYQQKTGQSPKRLIYWASNRDTGVPDRFTGSGSGTDFTLTISNMQAEDPAIYYCLQHNSYPRAFGGGTKLELR
stdout: binds

stdin: Quick one: give measured binding result for anti-TMEM-180 antibody clone 382 (rat IgG) (antibody, V domains shown, the entries appear to include a leader) VH: EVQLVESGGGLVQPGRSLKLSCAASGFTFSNYGMHWIRQAPTKGLEWVASISPSGGSTYYRDSVKGRFTISRDNAKSTLYLQMDSLRSEDTATYYCATSASITAYYYVMDAWGQGASVTVSS VL: DIVMTQSPTSMSISVGDRVTMNCKASQNVGSNVDWYQQKTGQSPKLLIYKASNRYTGVPDRFTGSGSGTDFTFTISNMQAEDLAVYYCMQSNSYPPTFGGGTKLELR
stdout: binds
